- Procedure summary: Solubility assay (FaSSGF / FaSSIF)
- Assay type: physicochemical
- Condition info: fassgf or other biorelevant, kinetic from dmso stock; FaSSGF solution pH 1.6, 100 μM from DMSO stock, 2 h at 25° C.; read-out: FaSSGF solubility
Reported metric: solubility at 2 h (µM)

Q: Give recorded solubility at 2 h. CC(C)C(=O)N1CCN(c2cc(S(=O)(=O)NC3(C#N)CC3)cn3c(-c4nnc(C(F)(F)F)s4)ncc23)CC1 [Example 167]
Ans: 57.5

1. CC(C)C(=O)N1CCN(c2cc(S(=O)(=O)NC3(C)COC3)cn3c(-c4nnc(C(F)F)s4)nc(Cl)c23)C[C@H]1C [Example 124]
2. C[C@@H]1CN(c2cc(S(=O)(=O)NC3(CF)CC3)cn3c(-c4nnc(C(F)F)s4)nnc23)CCN1C(=O)C1(C)CC1 [Example 120]
Q: Two entries are listed, 1 and 2 . Which one carries the higher solubility at 2 h? State your choice using its label.
Ans: 2
